TESTED TARGET: UniProt P08173
Sequence (P08173 1-479): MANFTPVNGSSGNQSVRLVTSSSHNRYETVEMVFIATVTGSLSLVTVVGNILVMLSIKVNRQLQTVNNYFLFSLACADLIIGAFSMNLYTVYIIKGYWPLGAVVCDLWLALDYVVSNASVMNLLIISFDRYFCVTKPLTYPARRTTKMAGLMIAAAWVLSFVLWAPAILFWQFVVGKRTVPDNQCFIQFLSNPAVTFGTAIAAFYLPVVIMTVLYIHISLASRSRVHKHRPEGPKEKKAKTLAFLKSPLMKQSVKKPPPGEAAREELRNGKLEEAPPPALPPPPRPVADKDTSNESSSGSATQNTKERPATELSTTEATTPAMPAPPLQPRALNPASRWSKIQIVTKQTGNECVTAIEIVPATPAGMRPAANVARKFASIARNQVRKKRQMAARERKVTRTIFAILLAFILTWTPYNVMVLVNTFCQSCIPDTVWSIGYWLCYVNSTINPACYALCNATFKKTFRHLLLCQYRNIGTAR
ASSAY PROCEDURE: human FLIPR-based M4 PAM assay, CHO-K1 cells stably transfected with human M4 receptor and chimeric G-protein Gαqi5
CONDITION SUMMARY: inflection point (IP) of dose response curve; acetylcholine added at 20% of maximum response; CHO-K1 human M4/Gαqi5, FLIPR Tetra
VALUE TYPE: EC50 (nM)

INSERT INTO measurements (compound, value_type, number) VALUES
  ('CONC(=O)c1cc(C)c(N2CCC(Oc3ccc(OC)nc3)CC2)nn1', 'EC50', 121);

[a] Cc1cc(C(=O)NC2C3CC2C3)nnc1N1CCC(Oc2cccc(C#N)c2)CC1 (stereo not drawn)
[b] COc1ccc(OC2CCN(c3nnc(C(=O)NCc4ccn(C)n4)cc3C)CC2)cn1
Between a and b , which one has the lower reported EC50 value? I would appreciate it if you answered with the label of your choice.
a

====

TESTED TARGET: human M4 muscarinic acetylcholine receptor (Homo sapiens, UniProt P08173)
ASSAY PROCEDURE: human FLIPR-based M4 PAM assay, CHO-K1 cells stably transfected with human M4 receptor and chimeric G-protein Gαqi5
CONDITION SUMMARY: inflection point (IP) of dose response curve; acetylcholine added at 20% of maximum response; CHO-K1 human M4/Gαqi5, FLIPR Tetra
Procedure: In a typical experiment the M4 muscarinic acetylcholine receptor modulating activity of the compounds of the present invention was determined in accordance with the following experimental method. […] Following dye loading the cell plates are placed in a FLIPR Tetra instrument and while monitoring dye fluorescence (excitation […]), 10 uL of test substance at increasing concentrations is added, and fluorescence values are recorded for 4 min. […]
pEC50: −log10 of the molar value.
VALUE TYPE: pEC50

INSERT INTO measurements (compound, number) VALUES
  ('COc1ncc(OC2CCN(c3nc(CO)nc(Cl)c3C)CC2)cc1F', 7.26);

[1] COc1ccc(OC2CCN(c3ncnc(N(C)CCc4ccccn4)c3C)CC2)cn1
[2] CSc1ncc(C)c(N2CCC(Oc3cccnc3)CC2)n1
[3] COc1ccc(OC2CCN(c3nnc(C(=O)NC4CNC(=O)C4)cc3C)CC2)cn1 (stereo not shown)
List from greatest to least pEC50. Answer by listing the labels in the order asked for.
3, 1, 2
(3: 6.71, 1: 6.38, 2: 5.51)

====

TESTED TARGET: human M4 muscarinic acetylcholine receptor (Homo sapiens, UniProt P08173)
ASSAY PROCEDURE: human FLIPR-based M4 PAM assay, CHO-K1 cells stably transfected with human M4 receptor and chimeric G-protein Gαqi5
CONDITION SUMMARY: inflection point (IP) of dose response curve; acetylcholine added at 20% of maximum response; CHO-K1 human M4/Gαqi5, FLIPR Tetra
VALUE TYPE: EC50 (nM)

Recorded results for 3 compounds are shown here.
INSERT INTO assay_data (compound, number) VALUES
  ('Cc1ncc(C)c(N2CCC(Oc3ccc4cn[nH]c4c3)CC2)n1 [Example 80]', 257),
  ('COc1ccc(OC2CCN(c3nc(CO)nc(C)c3C)CC2)cn1 [Example 241]', 42),
  ('COc1ccc(OC2CCN(c3nc(O)nc(Cl)c3C)CC2)cn1 [Example 235]', 248);

[I] Cc1cc(C#N)nnc1N1CCC(Oc2cccc(C#N)c2)CC1 [Example 259]
[II] COc1ccc(OC2CCN(c3nc(S(C)(=O)=O)nc(Cl)c3C)CC2)cc1 [Example 73]
[III] COc1ccc(OC2CCN(c3nc(C(=O)NCCc4ccncc4)nc(Cl)c3C)CC2)cn1 [Example 208]
[IV] COc1ccc(O[C@@H]2CCN(c3nnc(C(=O)N[C@@H]4CCc5ncccc5C4)cc3C)C[C@@H]2F)cn1 [Example 138B]
Write the entries in order, lowest recorded EC50 first. Answer by listing the labels in the order asked for.
I, II, IV, III

[a] COc1ccc(O[C@@H]2CCN(c3nnc(C(=O)NCc4ccncc4)cc3C)C[C@@H]2F)cn1 [Example 125]
[b] COc1ccc(OC2CCN(c3nnc(C(=O)NC4CCc5cccnc54)cc3C)CC2)cn1 (stereo not shown) [Example 170]
[c] COc1ccc(OC2CCN(c3nnc(C(=O)NCc4ccc(OC)c(C(F)(F)F)c4)cc3C)CC2)cn1 [Example 186]
Write the entries in order, lowest recorded EC50 first. Answer by listing the labels in the order asked for.
a, b, c

====

TESTED TARGET: human M4 muscarinic acetylcholine receptor (Homo sapiens, UniProt P08173)
Construct: expressed in transfected cells; host or cells: CHO-K1
ASSAY PROCEDURE: human FLIPR-based M4 PAM assay, CHO-K1 cells stably transfected with human M4 receptor and chimeric G-protein Gαqi5
Assay type: cell-based
CONDITION SUMMARY: inflection point (IP) of dose response curve; acetylcholine added at 20% of maximum response; CHO-K1 human M4/Gαqi5, FLIPR Tetra
pEC50: −log10 of the molar value.
VALUE TYPE: pEC50

Recorded results for 5 molecules are shown here.
INSERT INTO results (molecule, tested_target, number) VALUES
  ('Cc1cc(C(=O)NCc2ccncc2)nnc1N1CCC(Oc2cccnc2)CC1', 'human M4 muscarinic acetylcholine receptor (Homo sapiens, UniProt P08173)', 7.00),
  ('COc1ccc([C@H](C)NC(=O)c2cc(C)c(N3CCC(Oc4ccc(OC)nc4)CC3)nn2)cc1', 'human M4 muscarinic acetylcholine receptor (Homo sapiens, UniProt P08173)', 6.05),
  ('COc1ccc(OC2CCN(c3nnc(C(=O)NC45CC(C4)C5)cc3C)CC2)cn1', 'human M4 muscarinic acetylcholine receptor (Homo sapiens, UniProt P08173)', 6.68),
  ('Cc1c(Cl)nc(CO)nc1N1CCC(Oc2ccc3c(c2)C(=O)OC3)CC1', 'human M4 muscarinic acetylcholine receptor (Homo sapiens, UniProt P08173)', 7.11),
  ('COc1ccc(OC2CCN(c3nc(C)nc(N)c3C)CC2)cn1', 'human M4 muscarinic acetylcholine receptor (Homo sapiens, UniProt P08173)', 5.82);

[P] COc1ccc(OC2CCN(c3nnc(C(=O)N[C@H]4CCc5ccccc5C4)cc3C)CC2)cn1 [Example 165B]
[Q] Cc1ncc(C)c(N2CCC(Oc3cccnc3)CC2)n1
[R] Cc1cc(C(=O)NC2CCc3ccccc3C2)nnc1N1CCC(Oc2cccc(C#N)c2)CC1 (centres unmarked)
[S] Cc1c(Cl)nc(CO)nc1N1CCC(Oc2ccc3c(c2)C(=O)CO3)CC1
Write the entries in order, lowest recorded pEC50 first. Answer by listing the labels in the order asked for.
Q, P, R, S

[1] COc1ccc(OC2CCN(c3nnc(C(=O)NCc4ncn[nH]4)cc3C)CC2)cn1
[2] Cc1c(Cl)nc(CO)nc1N1CCC(Oc2ccc3c(c2)C(=O)CC3)CC1
Between 1 and 2 , which one has the lower reported pEC50 value? I would appreciate it if you answered with the label of your choice.
1
(1: 6.38, 2: 7.07)

[P] C=Cc1ncnc(N2CCC(Oc3cccc(C#N)c3)CC2)c1C
[Q] COc1ncc(C#N)c(N2CCC(Oc3cccc(C#N)c3)CC2)n1
[R] COc1ccc(OC2CCN(c3nnc(C(=O)NCc4ccccc4)cc3C)CC2)cn1
[S] COc1ccc(OC2CCN(c3nc(CO)nc(Cl)c3C)CC2)cn1
List from greatest to least pEC50. Answer by listing the labels in the order asked for.
R, S, P, Q

[a] COc1ccc(OC2CCN(c3nnc(C(=O)NC4CCc5cc(F)ccc5C4)cc3C)CC2)cn1 (centres unmarked)
[b] COc1ccc(OC2CCN(c3nc(SC)nc(Cl)c3C)CC2)cc1
[c] COc1ccc(OC2CCN(c3nc(C(=O)NCc4ccccc4Cl)nc(Cl)c3C)CC2)cn1
Write the entries in order, lowest recorded pEC50 first. Answer by listing the labels in the order asked for.
b, c, a
